Biological target: Genome polyprotein [810-3010] (Hepatitis C virus genotype 1b (isolate Con1), UniProt Q9WMX2)
Construct: 810-3010
Sequence (Q9WMX2 810-3010): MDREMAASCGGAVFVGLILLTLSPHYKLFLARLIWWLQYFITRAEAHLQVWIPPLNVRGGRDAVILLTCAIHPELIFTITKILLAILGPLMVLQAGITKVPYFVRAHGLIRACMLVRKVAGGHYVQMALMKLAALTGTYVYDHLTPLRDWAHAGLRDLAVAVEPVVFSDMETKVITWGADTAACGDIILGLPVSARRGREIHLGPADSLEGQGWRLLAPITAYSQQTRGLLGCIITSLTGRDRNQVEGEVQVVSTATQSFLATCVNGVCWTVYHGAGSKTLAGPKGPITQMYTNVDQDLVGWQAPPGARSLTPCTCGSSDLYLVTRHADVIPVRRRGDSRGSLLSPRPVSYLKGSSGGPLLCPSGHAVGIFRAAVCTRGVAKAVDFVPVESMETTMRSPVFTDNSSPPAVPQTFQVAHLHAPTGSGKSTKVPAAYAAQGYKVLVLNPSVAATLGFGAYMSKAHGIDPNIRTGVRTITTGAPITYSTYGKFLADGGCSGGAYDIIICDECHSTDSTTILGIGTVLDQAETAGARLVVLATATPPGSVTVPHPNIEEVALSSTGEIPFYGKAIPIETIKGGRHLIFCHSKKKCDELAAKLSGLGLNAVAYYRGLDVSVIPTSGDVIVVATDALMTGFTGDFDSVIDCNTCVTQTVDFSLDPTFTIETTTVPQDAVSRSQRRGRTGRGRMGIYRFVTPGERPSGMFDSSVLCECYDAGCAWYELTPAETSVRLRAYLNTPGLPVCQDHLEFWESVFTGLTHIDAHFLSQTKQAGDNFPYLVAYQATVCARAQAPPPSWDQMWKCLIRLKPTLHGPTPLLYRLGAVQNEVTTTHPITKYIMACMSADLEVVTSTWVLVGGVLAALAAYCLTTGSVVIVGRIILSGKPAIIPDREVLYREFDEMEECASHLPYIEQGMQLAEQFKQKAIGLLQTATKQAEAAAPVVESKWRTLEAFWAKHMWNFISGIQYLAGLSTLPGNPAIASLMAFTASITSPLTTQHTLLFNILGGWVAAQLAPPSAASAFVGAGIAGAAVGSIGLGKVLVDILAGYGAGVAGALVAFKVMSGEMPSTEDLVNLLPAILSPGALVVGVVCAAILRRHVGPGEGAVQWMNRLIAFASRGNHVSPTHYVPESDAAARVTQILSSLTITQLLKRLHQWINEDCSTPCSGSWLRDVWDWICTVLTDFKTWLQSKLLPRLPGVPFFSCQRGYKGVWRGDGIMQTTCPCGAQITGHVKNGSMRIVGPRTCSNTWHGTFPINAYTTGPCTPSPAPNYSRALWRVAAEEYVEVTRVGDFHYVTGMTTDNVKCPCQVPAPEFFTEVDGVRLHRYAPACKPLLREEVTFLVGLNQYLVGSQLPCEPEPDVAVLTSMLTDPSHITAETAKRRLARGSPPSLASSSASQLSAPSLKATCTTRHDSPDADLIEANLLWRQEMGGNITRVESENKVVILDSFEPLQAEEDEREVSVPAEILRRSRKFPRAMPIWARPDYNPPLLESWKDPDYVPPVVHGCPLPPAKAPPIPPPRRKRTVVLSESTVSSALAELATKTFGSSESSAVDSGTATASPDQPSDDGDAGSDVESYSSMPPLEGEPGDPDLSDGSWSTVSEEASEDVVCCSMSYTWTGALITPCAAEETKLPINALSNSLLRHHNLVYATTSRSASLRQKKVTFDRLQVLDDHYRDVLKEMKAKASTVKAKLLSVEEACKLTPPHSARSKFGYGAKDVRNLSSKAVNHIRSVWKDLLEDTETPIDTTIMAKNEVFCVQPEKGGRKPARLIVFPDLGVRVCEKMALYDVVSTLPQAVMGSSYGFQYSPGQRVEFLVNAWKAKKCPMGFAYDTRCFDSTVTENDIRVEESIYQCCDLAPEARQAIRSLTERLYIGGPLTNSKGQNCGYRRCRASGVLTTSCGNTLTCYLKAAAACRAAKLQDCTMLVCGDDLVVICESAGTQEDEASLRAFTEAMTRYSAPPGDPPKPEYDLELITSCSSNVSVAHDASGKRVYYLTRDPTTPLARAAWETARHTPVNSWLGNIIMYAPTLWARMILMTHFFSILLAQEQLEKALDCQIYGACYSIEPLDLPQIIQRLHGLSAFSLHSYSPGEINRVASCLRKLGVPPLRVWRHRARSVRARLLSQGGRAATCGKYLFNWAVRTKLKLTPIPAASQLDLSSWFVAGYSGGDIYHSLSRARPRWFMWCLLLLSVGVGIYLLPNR
Assay: Stable Replicon Assay
Metric Name: EC50 (nM)

# Compound, Metric Name, Value Observed
data = [
    ("CC[C@H](C)[C@H](NC(=O)OC)C(=O)N1CCC[C@H]1c1ncc(-c2ccc3cc(-c4ccc5[nH]c([C@@H]6CCCN6C(=O)[C@@H](NC(=O)OC)[C@@H](C)OC)nc5c4)ccc3c2)[nH]1 [US9427428, 21]", "EC50", 2.2),
]
